Known PET hydrolysis of a selection of sequences
Assay notes: PET hydrolysis, aromatic products released after 48 h (umol product/mg enzyme); higher = more PET depolymerization activity
Condition label: substrate: cryPow; 40 °C; pH 7.5

Ordered residues	Censoring operator	PET hydrolysis
AVHGPDPTDALLEASRGPYATAQIDVSALAVSGFGGGTIYYPTTTSEGTFGGVAIAPGYTADKSSLAWLAARLASHGFVVFNIDTLTRLDQPDSRGRQLLAALDYLTQRSSVRSRVDASRLGVMGHSMGGGGTLEAAVSRPSLRAAVPLTPWNLDKTWPEVRTPTLIIGADLDTIAPVLTHAEPFYASLPSTLDKAYLELNNATHFAPNITDTTIGKYAVAWMKRFIDDDTRYNRFLCPGPSWSLSVEEYRSTCPF [TEP061]	=	2
ASPYERGPDPTDSILEASRGPFATSQLSVSSLSVSGFGGGTVYYPTDTSQGTFGAIAISPGYTARWSSLAWLGPRIASHGFVVIGIETNTIYDQPASRGRQLLAALDYLTSSSPSTVRSRIDASRLAVAGHSMGGGGTLEAANDRPSLQAAVPLAPWNLTKIWSGVRVPTMIIGGEADTVAPVASHSEPFYQSIPSSVEKAYLELNNASHFFPQTTNTTMAKSMVAWLKRFVDDDTRYDQFLCPAPRGLAIQEYRDTCPIS [TEP144]	<	3

----------
Assay notes: purified protein yield per well (BCA); higher = higher soluble expression

Ordered residues	Censoring operator	purified protein yield per well / µg
SAPVHHRAATHTSAAAHHHAPFAVRTTVVPRTAVTKFGGGVIYAPLDTGKPVLGAVVITPGFTDTNANEKEMAELVASQGFVAFAIDTLTTDDLPDLRAAQMLAAADYLTGQSAVRSEVSQDDVGLIGYSFGGGGTMQAAQSRPSIKAAIGLMPFDFPPATDPNAMYPSYPKMTTPTLVITGQKDDVADPKDFGKPAYDSIPAGTPKQYLELAGIGHEGGQHVPSATIRNAVTAFLKRYLDGNSAYAKFICPAPKVGGPISASLSSCPKG [ESM131]	<	25
SSVNCDSLAQIALLNPGPYSVSSLDESDNIRNGPDYAGAHIYYPTNASGSLSSIVLVPGFMNFESTLQNWGPFLAAHGIVTMTIGANYLTDSPTHRKEALLDAIVTLKAEQTRIGSPLYYSLNINNFAVGGFSMGGGGAQLAAVSDPTIKAIIALNPYLSNASEADFNHNCPVLITSGELDFIANPNLHANVHYAVTPDSTPKQLYEIQNAGHDPLIGPNGGYGEVGMKVLSWLQAFLNDNHCYCPPILTVPTTASSFTHNIVCEDLFIQGCTDSTACNYNPNATIDDGSCETQSCACPGDLNGDYAITVADVLLTLSEFGCMTNCTADIDGDGFVNVTDILELLSMFGTVC [TEP145]	<	25
TADSSYQRGPAPTEASVRADRGPFQVARVNVPGAGFGSGTIYYPTDTSQGTFGGVAVSPGFLSPEILIAWLGPRLASHGFVVITFTTNTPTDQPDSRGSQLLAALDYLTTQSPTAVRQRLDNTRLSVIGHSMGGGGALRAANDRPDLQAAVPLGPYHTTKDWSGVRVPTMIIGGQYDSIAPNDQHSERFYNSLDSAPEKAYLRVTGTTHITVGTGTPGVGKYVLSWLKRFVDDDTRYDQFLCPTPSGPDVVEYHSTCPHA [TEP009]	=	28.4
AQENPYERGPAPTAQNITEDGPFAYATATVPAQSGFAGGAIYYPTDTSQGTFGAVAAVPGFLTPVDDVAWMGPRLASHGFVVFTIEPNSRFEFPSGRAAALKAGLTYLTQSSAVRDRVDPTRLAVAGHSMGGGAALEAALKDPNLKAAVALQPWHTGVNFSTVNVPSMIVGAENDPIASPASHAEPFYEQIPAASEKAYLNLAGVGHEVGGVVTNDTQSSMMLTWLKRYVDNDTRYEPFMCPGPSGSSVLEYRGTCPG [TEP170]	=	137
QYQKGPDPTVSALERTGSFATRTTTVSRTSASGFGGGTIYYPTASGSYGAIAISPGFTAYQSSISWMGTRLASHGFVVITIDTITTSDQPDSRGRQLKAALDKVVSLSRSSSSPIYNKVDTTRLAVAGHSMGGGGTLAAARDYPSLKAAVPLAPWHTTKSWSRVTVPTLIIGGSTDTIASVGLHSIPFYTSLPSSTNKAYMELSGEGHFFPQTSSNYPLVGRYMISWFKRFVDGDSRYSPFLCGAQHQADLGLFSDISDYRENCPY [ESM169]	=	219
